# measured on: Interstitial collagenase (Homo sapiens)
# Sequence (P03956 whole entry): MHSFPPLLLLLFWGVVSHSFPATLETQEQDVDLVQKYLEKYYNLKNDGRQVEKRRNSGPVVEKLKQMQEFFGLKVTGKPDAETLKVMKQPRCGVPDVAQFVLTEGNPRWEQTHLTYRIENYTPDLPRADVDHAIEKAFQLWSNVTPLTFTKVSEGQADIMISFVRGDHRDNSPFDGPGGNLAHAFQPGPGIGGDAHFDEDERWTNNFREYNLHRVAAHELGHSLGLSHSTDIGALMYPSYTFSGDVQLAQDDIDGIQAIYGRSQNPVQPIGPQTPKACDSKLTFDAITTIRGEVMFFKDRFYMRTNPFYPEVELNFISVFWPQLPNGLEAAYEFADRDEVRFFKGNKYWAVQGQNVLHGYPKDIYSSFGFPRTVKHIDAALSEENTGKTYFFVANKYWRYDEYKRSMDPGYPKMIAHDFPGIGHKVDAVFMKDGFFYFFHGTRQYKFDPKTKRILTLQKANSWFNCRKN
outcome measure: IC50 (nM)
Value expressed in nM; do not type the unit.

molecule: CNC(=O)C(Cc1c[nH]c2ccccc12)NC(=O)[C@@H](CC(=O)Nc1ccccn1)CC(C)C (some centres not stated)
IC50 (nM): 60

Input: Notebook entry, Interstitial collagenase (Homo sapiens) assay: IC50 of CNC(=O)C(Cc1c[nH]c2ccccc12)NC(=O)[C@@H](CC(=O)NN)CC(C)C (some centres not stated) = ?
Output: 50

* * *

Collected IC50 values appear next to each entry.
# measured on: 72 kDa type IV collagenase (Homo sapiens, UniProt P08253)
# Sequence (P08253 whole entry): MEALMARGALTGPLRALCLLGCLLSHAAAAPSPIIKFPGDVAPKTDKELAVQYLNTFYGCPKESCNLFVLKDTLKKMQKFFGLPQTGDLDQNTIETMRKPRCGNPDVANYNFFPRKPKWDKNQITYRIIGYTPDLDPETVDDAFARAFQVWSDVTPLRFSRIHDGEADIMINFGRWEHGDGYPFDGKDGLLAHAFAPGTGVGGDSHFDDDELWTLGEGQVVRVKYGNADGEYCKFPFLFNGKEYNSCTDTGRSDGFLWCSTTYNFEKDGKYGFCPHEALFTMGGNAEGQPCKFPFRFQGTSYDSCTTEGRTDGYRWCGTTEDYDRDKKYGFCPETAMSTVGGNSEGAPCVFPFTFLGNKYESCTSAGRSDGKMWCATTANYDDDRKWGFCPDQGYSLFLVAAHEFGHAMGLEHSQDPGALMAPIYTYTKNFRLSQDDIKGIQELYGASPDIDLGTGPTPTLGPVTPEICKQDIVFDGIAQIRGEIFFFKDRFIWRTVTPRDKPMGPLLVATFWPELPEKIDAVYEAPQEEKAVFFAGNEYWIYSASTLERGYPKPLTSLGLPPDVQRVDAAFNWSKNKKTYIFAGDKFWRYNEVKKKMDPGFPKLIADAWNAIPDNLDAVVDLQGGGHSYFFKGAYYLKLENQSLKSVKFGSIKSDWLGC
Give the value in nM but do not write nM after it.

molecule: CNC(=O)C(Cc1c[nH]c2ccccc12)NC(=O)[C@@H](CC(=O)O)CC(C)C (some centres not stated)
experimental value: 20

Now consider a different molecule.
Input: # returns recorded IC50 (system: 72 kDa type IV collagenase (Homo sapiens, UniProt P08253)) for CNC(=O)C(Cc1c[nH]c2ccccc12)NC(=O)[C@@H](CC(=O)Nc1ccccn1)CC(C)C (some centres not stated)
Output: 50
